Test: folding stability dG unfold from chymotrypsin proteolysis; higher = more stable
MEASURED_PROPERTY: folding stability dG unfold

[
  {
    "SEQUENCE_INPUT": "SAGGIEIPVNPHPSEDGQPYVMFTLEIEPKDDNGKKQERPIPFMFDSPDDAEEFASEAAPDGYKIRISAGGS [r16_652_TrROS]",
    "RESULT": "0.196 kcal/mol"
  },
  {
    "SEQUENCE_INPUT": "SAGGSAGGSAGGSTKTYNAEIDNPNGPKITIPIEYRNEDGESDFEEKAKKFAEEYAKKYSAGGSAGGSAGGS [r4_168_TrMRF]",
    "RESULT": "0.906 kcal/mol"
  },
  {
    "SEQUENCE_INPUT": "SAGGSAGGMVVERKDMDPEEAVEDTKKRIKEETGWEVTEITVTEFPEEPRLVVTIKVKKPPEKSSAGGSAGG [r6_462_JUSTAS]",
    "RESULT": "0.71 kcal/mol"
  },
  {
    "SEQUENCE_INPUT": "SAGGSAGGSAGPYVVTIELPSGERIEVAVPAERLEEHVEELKPLVEPARITVRPVAPDALSAGGSAGGSAGG [r11_103_TrMRF]",
    "RESULT": "0.477 kcal/mol"
  },
  {
    "SEQUENCE_INPUT": "SAGGSSKTEIYYNPKKPYFLIKVTYKNGKTKEYPIKGKGMSLEELKKKAEEIVKELNSEEFKEVVFNPSAGG [r13_267_TrMRF]",
    "RESULT": "2.5 kcal/mol"
  },
  {
    "SEQUENCE_INPUT": "SAGGSGSIVIKSIEPRLRLERLPNGELREVKEVEVDIEVEVDPETAPEEEIEAVREEAEKLAEELSSAGGSA [r2_40_JUSTAS]",
    "RESULT": "0.713 kcal/mol"
  }
]

----------
Test: folding stability dG unfold from trypsin proteolysis; higher = more stable

[
  {
    "SEQUENCE_INPUT": "SAGGSAGGSAGKKPPKVKVLELTFTLEDGYKVTVRLVENEDGELFLEIRIEPLPELPEEKSAGGSAGGSAGG [r11_998_TrROS_Hall]",
    "folding stability dG unfold, kcal/mol": 1.79
  },
  {
    "SEQUENCE_INPUT": "SAGGSAGGFIEYDPKTGTITVTFPSSVSPEDVRAAIEAAGFPATPVAYSYDPSPPVRTVTFKVASAGGSAGG [r6_396_JUSTAS]",
    "folding stability dG unfold, kcal/mol": 1.14
  },
  {
    "SEQUENCE_INPUT": "SAGGLIEAIKEAIDQAPPGDEEVTIPIRFPNGTFVIEIRREKDKYKIEIEMQNPNGQKQEITITIEVSAGGS [r16_642_TrROS]",
    "folding stability dG unfold, kcal/mol": 1.43
  },
  {
    "SEQUENCE_INPUT": "MITPEEAIELAKEKAKELLEKAGPGTPSVVVEIKAEDGRVVKVEVDPVKKVINITVYDKGGKKVAEKIIEES [r1_370_JUSTAS]",
    "folding stability dG unfold, kcal/mol": 2.06
  },
  {
    "SEQUENCE_INPUT": "SAGMVEVYEEDKRLLVRVTLESPDPSTITEETVRELLERLGLPVEELEISPTALPNGSYTVTAEVVVLPSAG [r5_922_JUSTAS]",
    "folding stability dG unfold, kcal/mol": 1.39
  },
  {
    "SEQUENCE_INPUT": "SAGGSITSTTTLPDGTTVTTTVLPSGVTVVTTSTLDPATGTVSTTTTTLPPSSATTTTTTTTVPPLTSAGGS [r16_230_JUSTAS]",
    "folding stability dG unfold, kcal/mol": 3.18
  },
  {
    "SEQUENCE_INPUT": "SAGGSAGGSAGGSKFLVKTSVEVFKNPVGGNRYGAKITTLAVNPDTNEVTLSESYLPLDLSAGGSAGGSAGG [r7_216_TrMRF]",
    "folding stability dG unfold, kcal/mol": 0.114
  },
  {
    "SEQUENCE_INPUT": "SAGGETKTLTIKFYDPKTGKLVAEVTITYTPEKVTVTIRFADGTTETVEMTAEELLAKLPPGAVIVPSAGGS [r16_543_TrROS_Hall]",
    "folding stability dG unfold, kcal/mol": 3.79
  },
  {
    "SEQUENCE_INPUT": "SAGGSAGGSAGGMVVLKTPERFVVVESVEVYVPVRDPDGTPVRWSPVRTEVRVTVIPPLASAGGSAGGSAGG [r7_3_JUSTAS]",
    "folding stability dG unfold, kcal/mol": 1.34
  },
  {
    "SEQUENCE_INPUT": "SAGGSAGGSAAMTVSEVSSSPDPSSDYLSFEVRTTETVKVPGTKAPVTTTVTTTPTKVSKLLSAGGSAGGSA [r18_41_JUSTAS]",
    "folding stability dG unfold, kcal/mol": -0.237
  },
  {
    "SEQUENCE_INPUT": "SAGMIKVEVVVPPEDPSKPPSEEELRALAEEVVRELGLDPAKHPIEIKREVVDPEKGVLRYTITVKLPSAGG [r19_244_JUSTAS]",
    "folding stability dG unfold, kcal/mol": 3.09
  },
  {
    "SEQUENCE_INPUT": "SAGGPKPKTYDIMIPFDSEEEAEKLMENPEWAKEIAKEIAPLFPGYDIKVEVSWHPETGYFMVKITVSAGGS [r16_320_TrROS]",
    "folding stability dG unfold, kcal/mol": 3.21
  },
  {
    "SEQUENCE_INPUT": "SAGGMTTTTTTYTIQLPNGETLTITITTTTLPGGITVTIPIGGTSPDQIAIAKELAEKLAAEIKEAASAGGS [r8_416_JUSTAS]",
    "folding stability dG unfold, kcal/mol": 2.89
  }
]

----------
Assay: folding stability dG unfold from trypsin proteolysis; higher = more stable
Rule: folding stability dG unfold under 0.7 kcal/mol gives N, otherwise Y.

[
  {
    "SEQUENCE_INPUT": "SAGGELREKIEEAVEEAAKAGKPVVKTSEIEARLGRPLTPELLEYVREKGIIERDPKGSITITLPEDKSAGG [r13_188_JUSTAS]",
    "ASSIGNED_CLASS": "N"
  },
  {
    "SEQUENCE_INPUT": "SAGGGSTSTSTSTSTDPATGATTTTTTTTVPTPDGSGTVTTTTTTVPGAAPDTDTAPVTTTTTTTPTPSAGG [r13_715_JUSTAS]",
    "ASSIGNED_CLASS": "Y"
  },
  {
    "SEQUENCE_INPUT": "SAGGSAGGMPVEVTETPVGTFPDGSTVTRTETVLPGGEVLVETTVTYPDGSSTTTTRRVPPELASAGGSAGG [r6_263_JUSTAS]",
    "ASSIGNED_CLASS": "Y"
  },
  {
    "SEQUENCE_INPUT": "SAMKVKVIVINPDGKPQEFEFEAEEGDPEKLVEEVEAEIKKLHPNSDIKFKAEVLEVKPDGEITILVSDSAG [r14_622_TrMRF]",
    "ASSIGNED_CLASS": "Y"
  },
  {
    "SEQUENCE_INPUT": "SAGGTLTLLVEVDGLLVRVTAEVRLVYDPETDELTLEVRVRVEVRPLPAPPPPLVVVRDADGRLRLLSAGGS [r8_46_TrROS_Hall]",
    "ASSIGNED_CLASS": "Y"
  },
  {
    "SEQUENCE_INPUT": "SAGGSAGGSAEWKPITYWVPPGQSIKEIADDLMDKNPRITDAEMEYDPDGYMKVTLTVRLDSAGGSAGGSAG [r3_371_TrROS]",
    "ASSIGNED_CLASS": "N"
  },
  {
    "SEQUENCE_INPUT": "SAGGEIKPGQTVRIRITVYNLETGEEKTIEVEVPAGKTLEEVLAELFDNLSEEERKNLVVRIEIEPVSAGGS [r16_321_TrROS_Hall]",
    "ASSIGNED_CLASS": "Y"
  },
  {
    "SEQUENCE_INPUT": "SAGGSAGGSMSPEEAKKLAEELAKKLGLEKVEIVEIKVEVDEETNEIKVTIYIRGKDGKWYKLSAGGSAGGS [r12_508_TrROS_Hall]",
    "ASSIGNED_CLASS": "Y"
  },
  {
    "SEQUENCE_INPUT": "SAGGSAGGSAGFHIDVEVHRDDEGYVKVRVKMYMYNPDPGEPMGSFEMTIWIPPEDADKLSAGGSAGGSAGG [r11_575_TrROS]",
    "ASSIGNED_CLASS": "Y"
  },
  {
    "SEQUENCE_INPUT": "SAGGSAGGSKKVEIKVKVKITNENGETLEVTATIVFDEKTGELYIYDEKTGKVYKISLDDIEPSAGGSAGGS [r12_772_TrROS_Hall]",
    "ASSIGNED_CLASS": "Y"
  },
  {
    "SEQUENCE_INPUT": "SAGGSAGGSKPIPYRVKIPSPNGKTHKFDVQIQVRPDGMIDIHVPSGKTIHIPANYPVEIEPWSAGGSAGGS [r20_227_TrROS]",
    "ASSIGNED_CLASS": "N"
  },
  {
    "SEQUENCE_INPUT": "SAGGSASAPVPTSVSVSVSSDPASGLTTIPTTVTYNGKTFPMSVTTTPSGTVVTKVGGSTFTVPAASAGGSA [r15_507_JUSTAS]",
    "ASSIGNED_CLASS": "N"
  },
  {
    "SEQUENCE_INPUT": "SAGGSAGGSASMGVVDEFVVYVPGEKGEEVEVKVYKDPNSDRYIVEIKGKKIPVTDEKKALLSAGGSAGGSA [r18_67_JUSTAS]",
    "ASSIGNED_CLASS": "N"
  },
  {
    "SEQUENCE_INPUT": "SAGGSATLKEIAKEIEKTVKPKYAKKLAKTIEEAVKKGYEIKKIIIEKPKDDSFKATIYLKKPNDPSAGGSA [r15_613_TrMRF]",
    "ASSIGNED_CLASS": "N"
  },
  {
    "SEQUENCE_INPUT": "SAGGSAGGGGMMKTITIPLEELKAKLAKETGKPLTIEEIKEALKKEGIKLLSVDKEKGTITISESAGGSAGG [r6_767_JUSTAS]",
    "ASSIGNED_CLASS": "Y"
  },
  {
    "SEQUENCE_INPUT": "SAGKYIMHPIKAGAEIKITIPPEGYRIKIGMYYPNGGKMEEHEVPIKPGKTLEFKIPDPNFFVMIEPEPSAG [r5_797_TrROS]",
    "ASSIGNED_CLASS": "Y"
  }
]

Ref: the supplement of paper PMC12764529
